system: mutant E; type: cell-based; conditions: FR=IC50(mutant strain)/IC50(HIV-1 strain LAI)

| molecule | FR towards mutant E |
| --- | --- |
| Cc1cc(OCC(=O)N[C@@H](Cc2ccccc2)[C@H](O)CN(CC(C)C)S(=O)(=O)c2ccc3nc[nH]c3c2)no1 | 1.0 |
| CC(C)CN(CC(O)C(Cc1ccccc1)NC(=O)OC1COC2OCCC12)S(=O)(=O)c1ccc2nc(N)n(C)c2c1 (stereo not shown) | 1.4 |
| COC(=O)Nc1nc2ccc(S(=O)(=O)N(CC(C)C)C[C@@H](O)[C@H](Cc3ccccc3)NC(=O)COc3c(C)cc(N(C)C)cc3C)cc2[nH]1 | 3.5 |
| Cc1cccc(C)c1OCC(=O)N[C@@H](Cc1ccccc1)[C@H](O)CN(CC(C)C)S(=O)(=O)c1ccc2ncn(CC(C)C)c2c1 | 7.4 |
| CC(C)CN(C[C@@H](O)[C@H](Cc1ccccc1)NC(=O)O[C@H]1CCOC1)S(=O)(=O)c1ccc2ncn(CCc3ccccc3)c2c1 | 6.2 |
| COC(=O)Nc1nc2ccc(S(=O)(=O)N(CC(C)C)C[C@@H](O)[C@H](Cc3ccccc3)NC(=O)c3ccc(O)cc3C)cc2[nH]1 | 1.3 |
| CC(C)CN(C[C@@H](O)[C@H](Cc1ccccc1)NC(=O)OCc1cncs1)S(=O)(=O)c1ccc2ncn(CCc3ccccc3)c2c1 | 17 |
| CC(C)CN(C[C@@H](O)[C@H](Cc1ccccc1)NC(=O)OCc1cncs1)S(=O)(=O)c1ccc2ncn(C)c2c1 | 19 |
| CC(C)CN(C[C@@H](O)[C@H](Cc1ccccc1)NC(=O)OC(C)(C)C)S(=O)(=O)c1ccc2ncn(CCc3ccccc3)c2c1 | 12.6 |
| CC(C)CN(C[C@@H](O)[C@H](Cc1ccccc1)NC(=O)OC1COC2OCCC12)S(=O)(=O)c1ccc2nc[nH]c2c1 (stereo partly shown) | 0.83 |
| CC(C)CN(C[C@@H](O)[C@H](Cc1ccccc1)NC(=O)OC1COC2OCCC12)S(=O)(=O)c1ccc2nc(NC(=O)NCCN(C)C)[nH]c2c1 (stereo partly shown) | 0.37 |
| Cc1cccc(C)c1OCC(=O)N[C@@H](Cc1ccccc1)[C@H](O)CN(CC(C)C)S(=O)(=O)c1ccc2nc(N)[nH]c2c1 | 3.1 |
| CC(C)CN(C[C@@H](O)[C@H](Cc1ccccc1)NC(=O)O[C@H]1CCOC1)S(=O)(=O)c1ccc2nc[nH]c2c1 | 8.7 |
| CC(C)CN(CC(O)C(Cc1ccccc1)NC(=O)OC1COC2OCCC12)S(=O)(=O)c1ccc2nc(NC(=O)OCCN(C)C)[nH]c2c1 (stereo not shown) | 0.32 |
| Cc1cccc(C)c1OCC(=O)N[C@@H](Cc1ccccc1)[C@H](O)CN(CC(C)C)S(=O)(=O)c1ccc2nc[nH]c2c1 | 13 |
| CC(C)CN(C[C@@H](O)[C@H](Cc1ccccc1)NC(=O)OCc1cncs1)S(=O)(=O)c1ccc2ncn(Cc3ccccc3)c2c1 | 13 |
| CC(C)CN(C[C@@H](O)[C@H](Cc1ccccc1)NC(=O)OC1COC2OCCC12)S(=O)(=O)c1ccc2nc(N)[nH]c2c1 (stereo partly shown) | 0.31 |
| CC(=O)Nc1nc2ccc(S(=O)(=O)N(CC(C)C)C[C@@H](O)[C@H](Cc3ccccc3)NC(=O)OC3COC4OCCC34)cc2[nH]1 (stereo partly shown) | 0.17 |
| CC(C)CN(C[C@@H](O)[C@H](Cc1ccccc1)NC(=O)OCc1cccnc1)S(=O)(=O)c1ccc2nc(N)[nH]c2c1 | 0.42 |
| CC(C)CN(CC(O)C(Cc1ccccc1)NC(=O)OC1COC2OCCC12)S(=O)(=O)c1ccc2nc(CO)[nH]c2c1 (stereo not shown) | 0.18 |
| COC(=O)Nc1nc2ccc(S(=O)(=O)N(CC(C)C)C[C@@H](O)[C@H](Cc3ccccc3)NC(=O)c3ccc([N+](=O)[O-])cc3C)cc2[nH]1 | 1.6 |
| CC(C)CN(C[C@@H](O)[C@H](Cc1ccccc1)NC(=O)O[C@H]1CO[C@H]2OCC[C@H]21)S(=O)(=O)c1ccc2ncn(Cc3ccccc3)c2c1 | 1.6 |
| Cc1cccc(C)c1OCC(=O)N[C@@H](Cc1ccccc1)[C@H](O)CN(CC(C)C)S(=O)(=O)c1ccc2ncn(CCc3ccccc3)c2c1 | 7.8 |
| Cc1cccc(C)c1OCC(=O)N[C@@H](Cc1ccccc1)[C@H](O)CN(CC(C)C)S(=O)(=O)c1ccc2ncn(C)c2c1 | 9.5 |
| CC(C)CN(CC(O)C(Cc1ccccc1)NC(=O)OC1COC2OCCC12)S(=O)(=O)c1ccc2ncn(Cc3ccncc3)c2c1 (stereo not shown) | 1.3 |
